- System: Zika virus NS2B-NS3 protease (unlinked complex)
- procedure-text: Primary screen GU Rhodamine qHTS for Zika virus inhibitors: Unlinked NS2B-NS3 protease assay (AID 1347159); further: nearly all actives have a fitted effect of over 60% in size
- assay-conditions: Recombinant ZIKV NS2B-NS3 protease, Rhodamine110 substrate fluorescence; series mostly up to 107 µM
Records with an inconclusive call do not appear. The source made the active and inactive calls. The call rests on the fitted dose curve; in most records, active means well fitted inhibition curve with a large enough effect; inconclusive means small, poorly fitted or top-dose-only effect; inactive means no such curve, though single readings can be large or run the other way.
I would appreciate it if you answered using one of these outcomes: 1.0 = active, 0.0 = inactive

Query :: Assay result, entry CC(=O)c1[nH]cc(CCC(=O)O)c1CC(=O)O — outcome?
Result :: 0.0

Query :: Assay result, entry CC(O)C1NC(=O)C2CCCN2C1=O (stereo unspecified) — outcome?
Result :: 0.0

Query :: Assay result, entry C=C(CCO[C@@H]1O[C@H](CO)[C@@H](O)[C@H](O)[C@H]1O)C(=O)O — outcome?
Result :: 0.0

Query :: Assay result, entry Nc1nc(COC(=O)c2ccc([N+](=O)[O-])cc2)nc(Nc2ccccc2)n1 — outcome?
Result :: 0.0

Query :: Assay result, entry C=CC(C)(CCC=C(C)C)O[C@@H]1O[C@H](CO)[C@@H](O)[C@H](O)[C@H]1O (stereo partly specified) — outcome?
Result :: 0.0

Query :: Assay result, entry CC1(O)CCC2C(C3C1CCC3(C)O)C2(C)C (stereo unspecified) — outcome?
Result :: 0.0

Query :: Assay result, entry CCOc1ccc(-c2nn3ncccc3c2-c2ccc(S(C)(=O)=O)cc2)cc1 — outcome?
Result :: 0.0

Query :: Assay result, entry COc1cc(C(=O)OC[C@@]2(O)CO[C@@H](O[C@H]3[C@H](Oc4ccc(O)cc4)O[C@H](CO)[C@@H](O)[C@@H]3O)[C@@H]2O)cc(OC)c1O — outcome?
Result :: 0.0

Query :: Assay result, entry C=C1CC2C3(C)C=CC(=O)OC(C)(C)C3CC(OC(C)=O)C2(C)C2C(=O)OC(C)C(=O)C12C (stereo unspecified) — outcome?
Result :: 0.0

Query :: Assay result, entry CC(=O)OC[C@]12[C@@H](OC(=O)c3ccoc3)C[C@@H]3[C@@H](OC(C)=O)[C@]1(OC3(C)C)[C@@](C)(O)C[C@H](OC(=O)c1ccoc1)[C@@H]2OC(=O)c1ccoc1 — outcome?
Result :: 0.0

Query :: Assay result, entry CC[C@H]1OC(=O)[C@H](C)[C@@H](O[C@H]2C[C@@](C)(OC)[C@@H](O)[C@H](C)O2)C(C)[C@@H](O[C@@H]2O[C@H](C)C[C@H](N(C)C)[C@H]2O)[C@](C)(O)C[C@@H](C)CN(C)[C@H](C)[C@@H](O)[C@]1(C)O (stereo partly specified) — outcome?
Result :: 0.0

Query :: Assay result, entry CC(=O)/C=C/C1(O)C(C)=CC(=O)CC1(C)C (stereo unspecified) — outcome?
Result :: 0.0

Query :: Assay result, entry COC1OC(O)C2(CCC3(O2)C(C)CC2OC(=O)C4(C)CCCC3(C)C24)C1O (stereo unspecified) — outcome?
Result :: 0.0

Query :: Assay result, entry CC1(C)CC[C@]2(C(=O)O)[C@H](O)C[C@]3(C)C(=CCC4[C@@]5(C)CC[C@H](O[C@@H]6OC[C@@H](O)[C@H](O)[C@H]6O)[C@@](C)(C(=O)O)C5CC[C@]43C)[C@@H]2C1 (stereo partly specified) — outcome?
Result :: 0.0

Query :: Assay result, entry O=C(OC(C(F)(F)F)C(F)(F)F)N1CCN(Cc2cccc(Oc3ccccc3)c2)CC1 — outcome?
Result :: 0.0

Query :: Assay result, entry CCCC/C=C\CCCCCc1cc(=O)c2ccccc2n1C — outcome?
Result :: 0.0

Query :: Assay result, entry CN(C)CCC[C@]1(c2ccc(F)cc2)OCc2cc(C#N)ccc21 — outcome?
Result :: 0.0

Query :: Assay result, entry C=C1CCC2C(C)(C)CC(O)CC2(C)C1CCC(C)CCOC(=O)CCC(=O)O (stereo unspecified) — outcome?
Result :: 1.0

Query :: Assay result, entry CSCC1OC(n2cnc3c(=O)[nH]cnc32)C(O)C1O (stereo unspecified) — outcome?
Result :: 0.0

Query :: Assay result, entry COc1cc(Cc2cnc(N)nc2N)c(C(C)C)cc1OC — outcome?
Result :: 0.0

Query :: Assay result, entry C/C=C(\C)C(=O)OC[C@H]1O[C@@H](O[C@H]2[C@@H](O[C@H]3O[C@H](COC(=O)/C(C)=C/C)[C@@H](O)[C@H](O)[C@H]3O[C@@H]3O[C@H](CO)[C@@H](O)[C@H](OC(=O)/C(C)=C/C)[C@H]3O)O[C@H](COC(=O)/C(C)=C/C)[C@@H](O)[C@@H]2O)[C@H](O)[C@@H](O)[C@@H]1O — outcome?
Result :: 0.0

Data origin: PubChem BioAssay (NCATS)
